- experimental protocol: PAX8 transcriptional activity inhibition in RMG-I – RMG-I cells, luciferase, single concentration, primary screen (AID 652154);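 note: luciferase light reporting Pax8 driven TPO promoter activity; plate controls were median of neutral control wells for no effect and mitoxantrone controls for full effect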
- experimental conditions: RMG-I TPO-luciferase reporter, SteadyGlo, 24 h; at 12.6 µM; hits give high values
About 4,200 (1.2%) of roughly 360,000 compounds were called active. The entries come from a sample that favours actives as a whole.
Measured inhibition values are reported for all entries that follow.

[[record]]
input_smiles = "C/C=C/c1ccc([C@H]2[C@@H](CNC(=O)NC(C)C)N(C(=O)C3CCC3)[C@H]2CO)cc1"
recorded_metric = "inhibition"
result = "6.6% (inactive)"

[[record]]
input_smiles = "CN(C)CC(=O)Nc1ccc2c(c1)[C@H]1C[C@@H](CC(=O)NCc3ccccn3)O[C@@H](CO)[C@H]1O2"
recorded_metric = "inhibition"
result = "-17.3% (inactive)"

[[record]]
input_smiles = "CNC[C@H]1OCCCC[C@@H](C)Oc2ccc(NC(=O)c3ccncc3)cc2C(=O)N([C@H](C)CO)C[C@H]1C"
recorded_metric = "inhibition"
result = "-8.2% (inactive)"


Query: Need inhibition, item `C[C@@H]1CN([C@H](C)CO)C(=O)CCCn2cc(nn2)CO[C@@H]1CN(C)C(=O)Nc1ccc2c(c1)OCO2`
Response: -4.65% (inactive)

Query: Need inhibition, item `COC(=O)C[C@@H]1CC[C@H]2[C@H](COc3ccc(NC(=O)c4ccccc4F)cc3C(=O)N2C)O1`
Response: 9.97% (inactive)

Query: Need inhibition, item `COc1cccc2sc(N(CCCN(C)C)C(=O)CCS(=O)(=O)c3ccccc3)nc12`
Response: 97.8% (active)

Query: Need inhibition, item `COc1ccc(N(C)C(=O)CCS(=O)(=O)c2cccc3nsnc23)cc1`
Response: 1.7% (inactive)

Query: Need inhibition, item `COc1ccc(S(=O)(=O)Nc2ccc3c(c2)C(=O)N([C@@H](C)CO)C[C@H](C)[C@H](CN(C)S(=O)(=O)c2ccc(F)cc2)OCCCC[C@@H](C)O3)cc1`
Response: 34% (inactive)

Query: Need inhibition, item `COc1ccc(S(=O)(=O)N(C)C[C@H]2OCCCC[C@@H](C)Oc3ccc(NS(=O)(=O)c4ccc(C)cc4)cc3C(=O)N([C@@H](C)CO)C[C@@H]2C)cc1`
Response: 36.3% (inactive)

Query: Need inhibition, item `CCCNC(=O)N1C[C@H]2[C@@H](c3ccccc31)[C@H](CO)N2C(=O)NC(C)C`
Response: -13% (inactive)

Query: Need inhibition, item `Cc1noc(C)c1S(=O)(=O)Nc1ccc2c(c1)C(=O)N([C@H](C)CO)C[C@@H](C)[C@H](CN(C)C(=O)NC(C)C)OCCCC[C@@H](C)O2`
Response: 16.4% (inactive)

Query: Need inhibition, item `O=C(C[C@@H]1CC[C@H]2[C@@H](COC[C@H](O)CN2Cc2ccc(F)cc2)O1)N1CCc2ccccc2C1`
Response: -7.32% (inactive)

Query: Need inhibition, item `Cn1c(=O)c2c(-c3cccc(Br)c3)c(C#N)c(N)nc2n(C)c1=O`
Response: 4.92% (inactive)

Query: Need inhibition, item `COc1ccc(S(=O)(=O)Nc2ccc3c(c2)C(=O)N([C@@H](C)CO)C[C@H](C)[C@@H](CN(C)S(=O)(=O)c2ccc(F)cc2)OCCCC[C@H](C)O3)cc1`
Response: 68.7% (active)

Query: Need inhibition, item `CCN(CC)CCN(C(=O)c1ccc2c(c1)CCCC2)c1nc2c(OC)cccc2s1`
Response: 14.3% (inactive)

Query: Need inhibition, item `CSc1ccc(-c2c(C#N)c(N)nc3c2c(C)nn3-c2ccccc2)cc1`
Response: 66.4% (active)
